Assay: Half life in mouse hepatic microsomes at 1 uM in presence of NADPH by LC-MS/MS method
Type: ADME, Microsome
Conditions: liver microsomes
Entries get a class label from measured half-life at 1 µM. See ranges: 1: < 3 min; 2: ≥ 3 min and < 6 min; 3: ≥ 6 min

[[record]]
compoundstructurestring = "C=CC(=O)Nc1cc(-n2c(=O)ccc3cnc4ccc(N5CCOCC5)cc4c32)ccc1C"
assignedlabel = 3

[[record]]
compoundstructurestring = "C=CC(=O)Nc1cc(-n2c(=O)ccc3cnc4ccc(-c5cnn(C)c5)cc4c32)ccc1F"
assignedlabel = 2

[[record]]
compoundstructurestring = "C=CC(=O)N1CCc2ccc(-n3c(=O)ccc4cnc5ccc(-c6cnn(C)c6)cc5c43)cc21"
assignedlabel = 1

[[record]]
compoundstructurestring = "C=CC(=O)Nc1cc(-n2c(=O)ccc3ccc4ccc(-c5cnn(C)c5)cc4c32)ccc1C"
assignedlabel = 2

[[record]]
compoundstructurestring = "C=CC(=O)N1CCc2ccc(-n3c(=O)n(C)c4cnc5ccc(-c6ccc7ccncc7c6)cc5c43)cc21"
assignedlabel = 1

[[record]]
compoundstructurestring = "C=CC(=O)N1CCc2ccc(-n3c(=O)ccc4cnc5ccc(-c6ccc(S(=O)(=O)NC(C)(C)C)cc6)cc5c43)cc21"
assignedlabel = 1

[[record]]
compoundstructurestring = "C=CC(=O)Nc1cc(-n2c(=O)ccc3cnc4ccc(-c5cnn(C)c5)cc4c32)ccc1C"
assignedlabel = 2

[[record]]
compoundstructurestring = "C=CC(=O)N1CCc2ccc(N3C(=O)NCc4cnc5ccc(-c6cnn(C)c6)cc5c43)cc21"
assignedlabel = 1

[[record]]
compoundstructurestring = "C=CC(=O)Nc1cc(-n2c(=O)ccc3cnc4ccc(-c5cn[nH]c5)cc4c32)ccc1C"
assignedlabel = 3

[[record]]
compoundstructurestring = "C=CC(=O)Nc1cc(-n2c(=O)ccc3cnc4ccc(-c5cnc6ccccc6c5)cc4c32)ccc1C"
assignedlabel = 1

[[record]]
compoundstructurestring = "C=CC(=O)Nc1cc(-n2c(=O)ccc3cnc4ccc(N5CCN(c6ccccc6)CC5)cc4c32)ccc1C"
assignedlabel = 2

[[record]]
compoundstructurestring = "Cc1ccc(-n2c(=O)ccc3ccc4ccc(-c5cnn(C)c5)cc4c32)cc1NC(=O)/C=C/CN(C)C"
assignedlabel = 3

[[record]]
compoundstructurestring = "C=CC(=O)N1CCc2ccc(-n3c(=O)n(C)c4cnc5ccc(-c6cnn(C)c6)cc5c43)cc21"
assignedlabel = 1

[[record]]
compoundstructurestring = "C=CC(=O)Nc1cc(-n2c(=O)ccc3ccc4ccc(-c5cn[nH]c5)cc4c32)ccc1C"
assignedlabel = 2

[[record]]
compoundstructurestring = "Cc1ccc(-n2c(=O)ccc3ccc4ccc(-c5ccc6ccncc6c5)cc4c32)cc1NC(=O)/C=C/CN(C)C"
assignedlabel = 3

[[record]]
compoundstructurestring = "C=CC(=O)Nc1cc(-n2c(=O)ccc3cnc4ccc(-c5ccc6c(c5)OCO6)cc4c32)ccc1C"
assignedlabel = 1

[[record]]
compoundstructurestring = "C=CC(=O)Nc1cc(-n2c(=O)ccc3ccc4ccc(-c5ccc6ccncc6c5)cc4c32)ccc1C"
assignedlabel = 3

[[record]]
compoundstructurestring = "C=CC(=O)Nc1cc(-n2c(=O)ccc3cnc4ccc(Nc5cnn(C)c5)cc4c32)ccc1C"
assignedlabel = 3

[[record]]
compoundstructurestring = "C=CC(=O)Nc1cc(-n2c(=O)ccc3cnc4ccc(-c5ccc(N)nc5)cc4c32)ccc1C"
assignedlabel = 3

